Target: chymotrypsin (Bos taurus, UniProt P00766)
Test: In vitro hydrolysis by chymotrypsin
Format: in vitro ADME
Settings: 50 µM compound, 37 °C
value type: hydrolysis by chymotrypsin

>  <molecule>
CCCCNc1ccc(C(=S)NCCN(C)C)cc1 [Compound 8]

>  <value type>
hydrolysis by chymotrypsin

>  <assay value>
completely resistant

$$$$
>  <molecule>
CCCCCCCCNc1ccc(C(=S)NCCN(C)C)cc1 [Compound 9]

>  <value type>
hydrolysis by chymotrypsin

>  <assay value>
completely resistant

$$$$
>  <molecule>
CCCCNc1ccc(C(=O)NCCN(C)C)cc1 [Compound 6]

>  <value type>
hydrolysis by chymotrypsin

>  <assay value>
resistant

$$$$
>  <molecule>
CCCCCCCCNc1ccc(C(=O)NCCN(C)C)cc1 [Compound 7]

>  <value type>
hydrolysis by chymotrypsin

>  <assay value>
resistant

$$$$

---

Target: proteinase K (Parengyodontium album, UniProt P06873)
Sequence (P06873 106-384): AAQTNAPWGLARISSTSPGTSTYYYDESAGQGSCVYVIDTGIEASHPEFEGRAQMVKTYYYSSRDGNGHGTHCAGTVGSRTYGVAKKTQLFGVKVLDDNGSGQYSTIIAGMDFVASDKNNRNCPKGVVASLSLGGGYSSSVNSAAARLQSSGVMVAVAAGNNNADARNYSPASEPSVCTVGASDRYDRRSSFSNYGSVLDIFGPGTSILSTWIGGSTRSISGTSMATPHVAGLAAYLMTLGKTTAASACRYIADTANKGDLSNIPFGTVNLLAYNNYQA
Test: In vitro hydrolysis by proteinase K
Assay type: in vitro ADME, Engyodontium album
Conditions: 50 µM compound, 37 °C
value type: hydrolysis by proteinase K

>  <molecule>
CCCCCCCCNc1ccc(C(=O)NCCN(C)C)cc1 [Compound 7]

>  <tested system>
proteinase K (Parengyodontium album, UniProt P06873)

>  <value type>
hydrolysis by proteinase K

>  <assay value>
resistant

$$$$
>  <molecule>
CCCCCCCCNc1ccc(C(=S)NCCN(C)C)cc1 [Compound 9]

>  <tested system>
proteinase K (Parengyodontium album, UniProt P06873)

>  <value type>
hydrolysis by proteinase K

>  <assay value>
completely resistant

$$$$
>  <molecule>
CCCCNc1ccc(C(=S)NCCN(C)C)cc1 [Compound 8]

>  <tested system>
proteinase K (Parengyodontium album, UniProt P06873)

>  <value type>
hydrolysis by proteinase K

>  <assay value>
completely resistant

$$$$
>  <molecule>
CCCCNc1ccc(C(=O)NCCN(C)C)cc1 [Compound 6]

>  <tested system>
proteinase K (Parengyodontium album, UniProt P06873)

>  <value type>
hydrolysis by proteinase K

>  <assay value>
resistant

$$$$

// data source = paper PMC3132207
